A collection of molecules and their measured pIC50
System: NCI-H460
Experiment: Antiproliferative activity against NCI-H460 cell line by MTS assay
Type: functional, cell-based
Conditions: Homo sapiens
pIC50: −log10 of the molar value.
RECORDED METRIC: pIC50

• COc1cc(-c2ccc[nH]2)[nH]c1/C=C1\C(C)=Nc2ccccc21 = 4.67
• COC1=CC(c2ccc[nH]2)=N/C1=C\c1[nH]c(-c2ccc[nH]2)cc1OC = 5.46
• COc1cc(-c2ccc[nH]2)[nH]c1/C=C1\C(C)=Nc2ccc(C)cc21 = 4.97
• COc1cc(-c2ccc[nH]2)[nH]c1/C=C1/C=C2CCCCC2=N1 = 6.64
• COc1cc(-c2ccc[nH]2)[nH]c1/C=C1\C=Nc2ccccc21 = 5.39
• CCC1CCCCCCCCC2=N/C(=C\c3[nH]c(-c4ccc[nH]4)cc3OC)C1=C2 (configuration not stated) = 6.48
• CCCCCC1=C/C(=C/c2[nH]c(-c3ccc[nH]3)cc2OC)N=C1C = 7.49
